# ASSAY OVERVIEW: Volume of distribution in rhesus monkey at 1 mg/kg, iv
# Format: ADME, organism-based, Macaca mulatta
# Design: dose 1 mg/kg, route intravenous
# PARTICULARS: in vivo, read-out: Vdss
ASSAY READOUT: Vd (L/kg)
One number for each entry, in L/kg.

Input line: Entry under review: `Cc1cc(S(=O)(=O)N[C@@H](C(=O)NO)C2CCOCC2)ccc1F` . Reported Vd?
Output line: 3.3

----------
Hi! I'm sharing some log10 of IC50 results obtained with Lethal factor (Bacillus anthracis, UniProt P15917).
Sequence (P15917 whole entry): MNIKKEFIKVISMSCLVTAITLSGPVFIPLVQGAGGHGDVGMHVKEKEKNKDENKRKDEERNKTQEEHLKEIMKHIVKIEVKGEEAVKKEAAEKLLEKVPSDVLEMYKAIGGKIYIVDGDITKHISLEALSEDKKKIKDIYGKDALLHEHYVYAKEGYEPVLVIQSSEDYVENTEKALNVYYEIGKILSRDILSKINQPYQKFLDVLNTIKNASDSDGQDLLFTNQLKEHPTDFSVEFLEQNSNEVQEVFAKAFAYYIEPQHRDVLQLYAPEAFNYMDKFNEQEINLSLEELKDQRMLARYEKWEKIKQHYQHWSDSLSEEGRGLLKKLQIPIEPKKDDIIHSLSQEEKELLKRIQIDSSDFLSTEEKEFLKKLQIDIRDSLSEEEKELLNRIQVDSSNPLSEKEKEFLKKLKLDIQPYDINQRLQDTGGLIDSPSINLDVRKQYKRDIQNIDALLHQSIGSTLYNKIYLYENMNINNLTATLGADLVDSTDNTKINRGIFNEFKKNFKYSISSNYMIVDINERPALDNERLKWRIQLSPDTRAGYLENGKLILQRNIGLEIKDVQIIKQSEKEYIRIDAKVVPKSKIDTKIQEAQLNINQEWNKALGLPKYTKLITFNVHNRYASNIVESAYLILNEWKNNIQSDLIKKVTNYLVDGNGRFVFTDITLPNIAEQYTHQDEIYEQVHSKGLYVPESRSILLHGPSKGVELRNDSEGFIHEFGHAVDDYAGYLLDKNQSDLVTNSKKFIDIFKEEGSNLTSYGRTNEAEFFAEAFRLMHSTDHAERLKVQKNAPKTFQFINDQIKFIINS
Units before log transform: µM; reported quantity: IC50; transform: log10.

The following compounds have reported results that may help.
• CC[C@H](C)[C@@H](NS(=O)(=O)c1ccc(F)c(C)c1)C(=O)NO = -0.64
• Cc1cc(S(=O)(=O)N[C@H](CCCN=C(N)N)C(=O)NO)ccc1F = 0.23
• CC(C)[C@@H](NS(=O)(=O)c1ccc(F)c2ccccc12)C(=O)NO = 0.44
• CC(C)[C@@H](NS(=O)(=O)c1ccc(Cl)s1)C(=O)NO = 0.81
• Cc1cc(S(=O)(=O)N[C@@H](C(=O)NO)[C@@H](C)C2CC2)ccc1F = -0.34

# map each compound to its log10 of IC50
1. COc1ccc(S(=O)(=O)N(Cc2ccncc2)[C@@H](C(=O)NO)C(C)C)cc1
2. CC[C@@H](NS(=O)(=O)c1ccc(F)c(C)c1)C(=O)NO
3. Cc1cc(S(=O)(=O)N[C@@H](C(=O)NO)[C@H]2CCOC2)ccc1F
4. Cc1cccc(S(=O)(=O)N[C@@H](C(=O)NO)C(C)C)c1
5. Cc1cc(S(=O)(=O)N[C@@H](C(=O)NO)C2CCCC2)ccc1F
6. COc1ccc(S(=O)(=O)N(C)[C@@H](C(=O)NO)C(C)C)cc1
7. Cc1cc(S(=O)(=O)N[C@H](CC2CC2)C(=O)NO)ccc1F
8. CC(C)[C@@H](NS(=O)(=O)c1ccccc1)C(=O)NO

Output line:
1. 0.98
2. -0.31
3. -0.35
4. 0.11
5. -0.77
6. 1.23
7. -0.89
8. 0.89

Please supply log10 of IC50 for each of the following items, keeping them in order.
1. CCCC[C@@H](NS(=O)(=O)c1ccc(F)c(C)c1)C(=O)NO
2. CC(C)[C@@H](NS(=O)(=O)c1ccc(-c2cnns2)s1)C(=O)NO

Output line:
1. -0.39
2. 1.01

For each entry beneath this line, provide reported log10 of IC50.
1. Cc1cc(S(=O)(=O)N[C@H](CCNC(=O)[C@H](C)N)C(=O)NO)ccc1F
2. COc1ccc(S(=O)(=O)N(Cc2cccnc2)[C@@H](C(=O)NO)C(C)C)cc1.Cl [CGS-27023A]
3. CC(C)[C@@H](NS(=O)(=O)c1ccc(F)cc1)C(=O)NO
4. Cc1cc(S(=O)(=O)N[C@H](CCNC(=O)C(C)(C)N)C(=O)NO)ccc1F
5. Cc1cc(S(=O)(=O)N[C@@H](C(=O)NO)C(C)C)ccc1F
6. COc1ccc(S(=O)(=O)N[C@@H](C(=O)NO)C(C)C)cc1
7. Cc1cc(S(=O)(=O)NC(CCc2c[nH]cn2)C(=O)NO)ccc1F (racemic)
8. CC[C@@H](C)[C@@H](NS(=O)(=O)c1ccc(F)c(C)c1)C(=O)NO

Output line:
1: 0.87; 2: 1.08; 3: 0.48; 4: 0.94; 5: -0.92; 6: 0.86; 7: 0.45; 8: -0.89

Data provenance is ChEMBL document CHEMBL1138106.
